Biological target: T1, Human CD3eg linker (human)
T1 construct: Single-chain construct; also called recombinant human CD3
T1 chain: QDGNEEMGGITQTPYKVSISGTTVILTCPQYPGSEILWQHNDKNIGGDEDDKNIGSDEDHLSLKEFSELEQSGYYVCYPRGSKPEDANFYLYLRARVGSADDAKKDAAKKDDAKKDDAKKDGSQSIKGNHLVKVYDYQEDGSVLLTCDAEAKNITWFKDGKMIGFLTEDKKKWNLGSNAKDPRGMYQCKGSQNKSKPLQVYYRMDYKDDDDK
Test: SPR; fold vs parent H183/L072
# fold change of affinity per entry
Use fold as the unit, but write only the number.

*Q* Quick one: fold change of affinity for H183/L072 VL E27aQ (antibody, name in Kabat numbering, V domains shown) VH: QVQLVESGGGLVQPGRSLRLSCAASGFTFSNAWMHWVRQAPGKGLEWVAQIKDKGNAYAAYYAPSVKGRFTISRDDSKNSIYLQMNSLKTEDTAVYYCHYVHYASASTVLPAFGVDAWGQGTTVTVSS VL: DIVMTQSPLSLPVTPGEPASISCQASQQLVHMNRNTYLHWYQQKPGQAPRLLIYKVSNRFPGVPDRFSGSGSGTDFTLKISRVEAEDVGVYYCAQGTSVPFTFGQGTKLEIK ?
*A* 1.2

*Q* Param item = H183/L072 VL V27cY (antibody, name in Kabat numbering, V domains shown) VH: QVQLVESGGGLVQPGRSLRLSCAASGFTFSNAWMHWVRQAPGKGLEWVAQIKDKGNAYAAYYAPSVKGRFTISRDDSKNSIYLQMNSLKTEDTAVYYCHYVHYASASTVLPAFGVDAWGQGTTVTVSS VL: DIVMTQSPLSLPVTPGEPASISCQASQELYHMNRNTYLHWYQQKPGQAPRLLIYKVSNRFPGVPDRFSGSGSGTDFTLKISRVEAEDVGVYYCAQGTSVPFTFGQGTKLEIK ; retrieve measured fold change of affinity.
*A* 0.5

*Q* Param item = H183/L072 VL N30L (antibody, name in Kabat numbering, V domains shown) VH: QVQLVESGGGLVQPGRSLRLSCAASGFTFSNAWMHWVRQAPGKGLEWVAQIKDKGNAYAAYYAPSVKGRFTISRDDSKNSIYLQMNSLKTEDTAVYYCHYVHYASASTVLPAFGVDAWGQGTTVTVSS VL: DIVMTQSPLSLPVTPGEPASISCQASQELVHMNRLTYLHWYQQKPGQAPRLLIYKVSNRFPGVPDRFSGSGSGTDFTLKISRVEAEDVGVYYCAQGTSVPFTFGQGTKLEIK ; retrieve measured fold change of affinity.
*A* 0.5

*Q* Name the recorded fold change of affinity for H183/L072 VL V27cD (antibody, name in Kabat numbering, V domains shown) VH: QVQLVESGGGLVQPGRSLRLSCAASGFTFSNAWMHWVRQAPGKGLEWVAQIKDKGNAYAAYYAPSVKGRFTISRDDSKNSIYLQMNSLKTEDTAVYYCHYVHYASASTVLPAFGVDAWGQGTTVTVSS VL: DIVMTQSPLSLPVTPGEPASISCQASQELDHMNRNTYLHWYQQKPGQAPRLLIYKVSNRFPGVPDRFSGSGSGTDFTLKISRVEAEDVGVYYCAQGTSVPFTFGQGTKLEIK .
*A* 0.1

*Q* State the recorded fold change of affinity for this entry: H183/L072 VL P56N (antibody, name in Kabat numbering, V domains shown) VH: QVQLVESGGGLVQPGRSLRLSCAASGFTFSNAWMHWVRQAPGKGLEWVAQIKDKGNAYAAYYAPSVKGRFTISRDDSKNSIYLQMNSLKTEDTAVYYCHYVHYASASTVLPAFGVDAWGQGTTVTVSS VL: DIVMTQSPLSLPVTPGEPASISCQASQELVHMNRNTYLHWYQQKPGQAPRLLIYKVSNRFNGVPDRFSGSGSGTDFTLKISRVEAEDVGVYYCAQGTSVPFTFGQGTKLEIK
*A* 3.3
